target: Bcl-xL, Q07817; assay: peptide SPOT array, c-Myc-tagged receptor at 1 uM or 100 nM, anti-c-Myc-Cy3
Sequence (Q07817 1-209): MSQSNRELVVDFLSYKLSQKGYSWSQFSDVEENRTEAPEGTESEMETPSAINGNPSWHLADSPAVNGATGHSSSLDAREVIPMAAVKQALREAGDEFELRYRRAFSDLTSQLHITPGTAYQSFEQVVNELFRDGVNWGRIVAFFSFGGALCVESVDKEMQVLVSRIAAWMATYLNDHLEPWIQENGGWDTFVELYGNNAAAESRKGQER
parameter-measured: SPOT signal as a fraction of Bim BH3's signal on the same receptor and array

binder	observed-measurement
FRFAQLCGLHIVIHLDELEELMCYYQ [CLTCL1]	0.02

A: MQTLSELAKSDQDMADRCLLVLHLEV [EXOC4]
B: VLSRIEAGRSDKSVADEFGISKSTFY [TIGD7_3eA]
[in] Hi, I'm comparing two records. Which one has the lower SPOT signal as a fraction of Bim BH3's signal on the same receptor and array, A or B ? // return label of chosen record
[out] B
